Hello, the source for this data is the supplement of paper PMC6555819, in case you need it.

- Test system: RARb:RXRa (NR concentration 270 nM, RXRa partner concentration 90 nM)
- protocol.summary: PBM binding z-score (relative to random genomic background probes); higher = stronger binding; sequences stand for … in GC…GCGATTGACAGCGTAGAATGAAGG
property.name: PBM binding z-score
Answer with a bare number; do not write a unit.

// known answers, use as guide
{"seq.text": "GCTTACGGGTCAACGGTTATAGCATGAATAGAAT", "PBM binding z-score": 4.08}
{"seq.text": "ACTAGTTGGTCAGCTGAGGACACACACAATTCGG", "PBM binding z-score": 1.52}
{"seq.text": "ACTTACGGGTCAACGAGATTATAGCACGCGTATA", "PBM binding z-score": 4.23}
{"seq.text": "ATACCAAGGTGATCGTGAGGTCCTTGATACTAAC", "PBM binding z-score": 0.729}
{"seq.text": "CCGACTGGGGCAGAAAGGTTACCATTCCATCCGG", "PBM binding z-score": 1.52}

The recorded PBM binding z-score for entry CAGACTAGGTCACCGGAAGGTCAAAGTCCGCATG equals 5.34

The recorded PBM binding z-score for entry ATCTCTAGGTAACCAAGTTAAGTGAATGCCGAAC equals 0.317

The recorded PBM binding z-score for entry CTCGAAAGGTCTTGCTCAGGTGAGTATACCAAAC equals 1.75

The recorded PBM binding z-score for entry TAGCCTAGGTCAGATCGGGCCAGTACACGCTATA equals 3.22

The recorded PBM binding z-score for entry TCTAGTTGGTCACCGAGGTCACACACGACGGGTA equals 3.92

The recorded PBM binding z-score for entry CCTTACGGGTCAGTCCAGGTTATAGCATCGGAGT equals 3.31

The recorded PBM binding z-score for entry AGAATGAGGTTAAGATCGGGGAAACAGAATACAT equals 1.95

The recorded PBM binding z-score for entry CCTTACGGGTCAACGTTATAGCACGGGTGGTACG equals 4.13

The recorded PBM binding z-score for entry TCATATAGGTAAACAGGTGAAAATCCGTAAGTTA equals 0.846

The recorded PBM binding z-score for entry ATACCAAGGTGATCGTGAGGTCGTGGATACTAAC equals 1.65

The recorded PBM binding z-score for entry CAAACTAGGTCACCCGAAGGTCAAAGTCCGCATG equals 5.29

The recorded PBM binding z-score for entry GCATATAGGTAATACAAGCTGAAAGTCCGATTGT equals -0.475

The recorded PBM binding z-score for entry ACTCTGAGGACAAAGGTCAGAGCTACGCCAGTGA equals 4.47
